Measured pIC50 (Cytochrome P450 3A4 (Homo sapiens))
pIC50: −log10 of the molar value.

Data request: Any idea what pIC50 came out for C[C@@H](C[C@@](C)(CS(=O)(=O)N1CCN(c2ccc(F)cc2)CC1)N(O)C=O)c1ncc(F)cn1 on Cytochrome P450 3A4 (Homo sapiens)?
Data returned: < 5.00

More entries:
Data request: Fill in the recorded pIC50 for this compound, with Cytochrome P450 3A4 (Homo sapiens) as test system: C[C@@H](C[C@@](C)(CS(=O)(=O)N1CCC(OCc2ccc(Cl)cc2Cl)CC1)N(O)C=O)c1ncc(F)cn1
Sequence (P08684 whole entry): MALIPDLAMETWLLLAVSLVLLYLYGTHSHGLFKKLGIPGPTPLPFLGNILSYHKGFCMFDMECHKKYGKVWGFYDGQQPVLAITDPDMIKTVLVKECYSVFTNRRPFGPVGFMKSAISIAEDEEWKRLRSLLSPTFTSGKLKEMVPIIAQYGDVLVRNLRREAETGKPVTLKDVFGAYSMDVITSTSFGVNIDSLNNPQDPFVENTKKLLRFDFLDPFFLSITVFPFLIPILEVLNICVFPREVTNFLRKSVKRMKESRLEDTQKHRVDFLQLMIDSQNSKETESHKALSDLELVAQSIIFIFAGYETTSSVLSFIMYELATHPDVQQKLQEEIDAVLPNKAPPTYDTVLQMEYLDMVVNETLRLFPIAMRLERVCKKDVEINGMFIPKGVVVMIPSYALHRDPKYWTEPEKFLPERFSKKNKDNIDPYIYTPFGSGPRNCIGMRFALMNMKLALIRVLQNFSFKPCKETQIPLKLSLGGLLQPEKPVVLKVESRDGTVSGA
Data returned: < 5.00

====

target: 72 kDa type IV collagenase (Homo sapiens, UniProt P08253); experiment: Inhibition of recombinant human MMP2 assessed as substrate cleavage by measuring increase in fluorescence after 16 hrs
Sequence (P08253 whole entry): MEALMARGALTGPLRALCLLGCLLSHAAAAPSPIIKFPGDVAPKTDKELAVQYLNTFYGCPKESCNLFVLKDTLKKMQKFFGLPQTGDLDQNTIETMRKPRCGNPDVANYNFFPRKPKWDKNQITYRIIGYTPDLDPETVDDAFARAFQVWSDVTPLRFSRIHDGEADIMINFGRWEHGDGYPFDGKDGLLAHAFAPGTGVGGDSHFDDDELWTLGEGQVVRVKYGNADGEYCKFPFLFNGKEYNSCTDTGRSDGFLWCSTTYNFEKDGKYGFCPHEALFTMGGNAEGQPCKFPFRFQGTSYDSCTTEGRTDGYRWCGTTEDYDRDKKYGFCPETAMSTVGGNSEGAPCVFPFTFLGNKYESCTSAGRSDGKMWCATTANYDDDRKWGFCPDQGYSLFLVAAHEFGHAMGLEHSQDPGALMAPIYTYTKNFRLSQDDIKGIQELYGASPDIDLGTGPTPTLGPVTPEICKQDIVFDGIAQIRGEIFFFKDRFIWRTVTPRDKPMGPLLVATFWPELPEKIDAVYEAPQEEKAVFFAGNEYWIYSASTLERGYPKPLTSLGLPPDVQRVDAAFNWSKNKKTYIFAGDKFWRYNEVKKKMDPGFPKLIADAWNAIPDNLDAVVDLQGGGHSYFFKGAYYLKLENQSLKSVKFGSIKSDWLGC
endpoint: IC50 (µM)

Data request: // lookup IC50 for C[C@@H](C[C@@](C)(CS(=O)(=O)N1CCC(CCc2ccc(C(F)(F)F)cc2Cl)CC1)N(O)C=O)c1ncc(F)cn1
Data returned: 0.17

Data request: Quick one: IC50 for Cc1cc(F)ccc1CCC1CCN(S(=O)(=O)C[C@](C)(C[C@H](C)c2ncc(F)cn2)N(O)C=O)CC1 ?
Data returned: 0.12

Data request: Any idea what its IC50 is? The compound is C[C@@H](C[C@@](C)(CS(=O)(=O)N1CCC(CCc2ccc(S(C)(=O)=O)cc2Cl)CC1)N(O)C=O)c1ncc(F)cn1
Data returned: 0.18

[I] Cc1cnc(C)c(CCC2CCN(S(=O)(=O)C[C@](C)(C[C@H](C)c3ncc(F)cn3)N(O)C=O)CC2)c1
[II] Cc1cc(CCC2CCN(S(=O)(=O)C[C@](C)(C[C@H](C)c3ncc(F)cn3)N(O)C=O)CC2)c(C)cn1
[III] Cc1cc(C)c(CCC2CCN(S(=O)(=O)C[C@](C)(C[C@H](C)c3ncc(F)cn3)N(O)C=O)CC2)cn1
Data request: // smallest IC50 at index 0, largest at the end Give the order by naming the labels one after another as requested.
Data returned: III, II, I
(III: 2.2 µM, II: 12 µM, I: 35 µM)

[I] Cc1cc(C(F)(F)F)ccc1CCC1CCN(S(=O)(=O)C[C@](C)(C[C@H](C)c2ncc(F)cn2)N(O)C=O)CC1
[II] C[C@@H](C[C@@](C)(CS(=O)(=O)N1CCC(CCc2ccc(F)cc2Br)CC1)N(O)C=O)c1ncc(F)cn1
Data request: Smaller IC50 value, I vs II ? Kindly give the label for the entry you pick.
Data returned: I
(I: 0.35 µM, II: 1.7 µM)

====

test: Intrinsic clearance in rat hepatocytes measured per 10^6 cells; type: ADME, cell-based, Liver, Hepatocyte
endpoint: hepatocyte CLint (µL/min/1e6 cells)

Data request: I am curious: what hepatocyte CLint value has been reported for C[C@@H](C[C@@](C)(CS(=O)(=O)N1CCC(CCc2ccc(Cl)cc2Cl)CC1)N(O)C=O)c1ncc(F)cn1 ?
Data returned: 7.6

[A] C[C@@H](C[C@@](C)(CS(=O)(=O)N1CCN(CCc2ccc(Cl)cc2Cl)CC1)N(O)C=O)c1ncc(F)cn1
[B] C[C@@H](C[C@@](C)(CS(=O)(=O)N1CCC(OCc2ccc(Cl)cc2Cl)CC1)N(O)C=O)c1ncc(F)cn1
Data request: Out of A and B , name the one with the higher hepatocyte CLint. Lab log: write the label of the selected item as the result.
Data returned: B
(B: 56.9 µL/min/1e6 cells, A: 10.2 µL/min/1e6 cells)

====

target: UniProtKB P45452; test: Inhibition of recombinant human MMP13 assessed as substrate cleavage by measuring increase in fluorescence after 16 hrs
endpoint: IC50 (nM)

Below: 3 compounds and their reported IC50.
Data request: // query IC50 value for entry C[C@@H](C[C@@H](CS(=O)(=O)N1CCC(OCc2ccc(Cl)cc2Cl)CC1)N(O)C=O)c1ncc(F)cn1
Data returned: 180

Data request: For the compound Cc1cc(C(F)(F)F)cnc1CCC1CCN(S(=O)(=O)C[C@](C)(C[C@H](C)c2ncc(F)cn2)N(O)C=O)CC1 , what IC50 is on record?
Data returned: 6100

Data request: I have this compound here, Cc1cc(CCC2CCN(S(=O)(=O)C[C@](C)(C[C@H](C)c3ncc(F)cn3)N(O)C=O)CC2)n(C)n1 , and I need its recorded IC50.
Data returned: 6700

[a] C[C@@H](C[C@@](C)(CS(=O)(=O)N1CCC(OCc2ccc(Cl)cc2Cl)CC1)N(O)C=O)c1ncc(F)cn1
[b] C[C@@H](C[C@@H](CS(=O)(=O)N1CCN(c2ccc(F)cc2)CC1)N(O)C=O)c1ncc(F)cn1
[c] Cc1cnc(C)c(CCC2CCN(S(=O)(=O)C[C@](C)(C[C@H](C)c3ncc(F)cn3)N(O)C=O)CC2)c1
[d] C[C@@H](C[C@@](C)(CS(=O)(=O)N1CCC(CCc2ccc(C(F)(F)F)cc2C2CC2)CC1)N(O)C=O)c1ncc(F)cn1
[e] C[C@@H](C[C@@](C)(CS(=O)(=O)N1CCN(c2ccc(F)cc2)CC1)N(O)C=O)c1ncc(F)cn1
Data request: Please order the records by their reported IC50, lowest number first. Show the ranking through the labels, in the order asked for.
Data returned: e, b, a, d, c
(e: 7.6 nM, b: 11 nM, a: 430 nM, d: 17000 nM, c: 27000 nM)

[P] Cc1cc(F)ccc1CCC1CCN(S(=O)(=O)C[C@](C)(C[C@H](C)c2ncc(F)cn2)N(O)C=O)CC1
[Q] Cc1cc(Cl)ccc1CCC1CCN(S(=O)(=O)C[C@](C)(C[C@H](C)c2ncc(F)cn2)N(O)C=O)CC1
Data request: Which gives the smaller IC50 number: P or Q ? // output: label of the selected item
Data returned: Q
(Q: 370 nM, P: 530 nM)

[I] C[C@@H](C[C@@](C)(CS(=O)(=O)N1CCC(CCc2ccc(F)cc2Br)CC1)N(O)C=O)c1ncc(F)cn1
[II] Cc1ccc(C)c(CCC2CCN(S(=O)(=O)C[C@](C)(C[C@H](C)c3ncc(F)cn3)N(O)C=O)CC2)c1
Data request: Which entry has a larger number for IC50, I or II ? Could you answer with the label of the item you picked?
Data returned: II

[A] C[C@@H](C[C@@](C)(CS(=O)(=O)N1CCC(CCc2cc(F)ccc2Cl)CC1)N(O)C=O)c1ncc(F)cn1
[B] C[C@@H](C[C@@](C)(CS(=O)(=O)N1CCC(CCc2ccc(F)cc2C(F)(F)F)CC1)N(O)C=O)c1ncc(F)cn1
Data request: Between A and B , whose measured IC50 reads higher? Give the chosen item's label as your response.
Data returned: B
(B: 16000 nM, A: 570 nM)

[1] Cc1cc(C(F)(F)F)ccc1CCC1CCN(S(=O)(=O)C[C@](C)(C[C@H](C)c2ncc(F)cn2)N(O)C=O)CC1
[2] C[C@@H](C[C@@](C)(CS(=O)(=O)N1CCC(CCc2ccc(C(F)(F)F)cc2Cl)CC1)N(O)C=O)c1ncc(F)cn1
[3] Cc1cc(CCC2CCN(S(=O)(=O)C[C@](C)(C[C@H](C)c3ncc(F)cn3)N(O)C=O)CC2)c(C)cn1
[4] Cc1nsc(C)c1CCC1CCN(S(=O)(=O)C[C@](C)(C[C@H](C)c2ncc(F)cn2)N(O)C=O)CC1
Data request: Hey, quick one: sort these by IC50, low to high? // list labels; follow requested order
Data returned: 2, 1, 4, 3
(2: 260 nM, 1: 2300 nM, 4: 4600 nM, 3: 14000 nM)

====

test: Clearance in Han Wistar rat at 2 mg/kg, iv by LC-MS/MS analysis; format: ADME, organism-based; set-up: dose 2 mg/kg, route intravenous; conditions: in vivo
endpoint: clearance (mL/min/kg)

// solved cases for clearance follow
Data request: Requested field: clearance. Item: C[C@@H](C[C@@](C)(CS(=O)(=O)N1CCC(OCc2ccc(Cl)cc2Cl)CC1)N(O)C=O)c1ncc(F)cn1
Data returned: 130

Data request: Which clearance reading was recorded for the compound C[C@@H](C[C@@](C)(CS(=O)(=O)N1CCN(CCc2ccc(Cl)cc2Cl)CC1)N(O)C=O)c1ncc(F)cn1 ?
Data returned: 14

[1] Cc1noc(C)c1CCC1CCN(S(=O)(=O)C[C@](C)(C[C@H](C)c2ncc(F)cn2)N(O)C=O)CC1
[2] C[C@@H](C[C@@](C)(CS(=O)(=O)N1CCC(CCc2ccc(Cl)cc2Cl)CC1)N(O)C=O)c1ncc(F)cn1
Data request: Which gives the smaller clearance number: 1 or 2 ? When you have decided, please share the label of that item.
Data returned: 1
(1: 11 mL/min/kg, 2: 20 mL/min/kg)

====

test: Oral bioavailability in Han Wistar rat at 3 to 10 mg/kg by LC-MS/MS analysis; format: ADME, organism-based; conditions: in vivo
endpoint: bioavailability (%)

Data request: Query: bioavailability; subject: C[C@@H](C[C@@](C)(CS(=O)(=O)N1CCC(CCc2ccc(Cl)cc2Cl)CC1)N(O)C=O)c1ncc(F)cn1
Data returned: 38

[I] C[C@@H](C[C@@](C)(CS(=O)(=O)N1CCN(CCc2ccc(Cl)cc2Cl)CC1)N(O)C=O)c1ncc(F)cn1
[II] C[C@@H](C[C@@](C)(CS(=O)(=O)N1CCC(OCc2ccc(Cl)cc2Cl)CC1)N(O)C=O)c1ncc(F)cn1
Data request: For I and II , which recorded bioavailability is lower? Bench note: the answer is the label of the chosen record.
Data returned: II
